B1: ETS2 (parent)
chain: TSGKRYVYRFVCDLQNLLGFTPEE

variants of: B1; experiment: protein stability index of a GFP-peptide fusion (GPS, HEK-293T) (PSI 1-6); higher = more stable; conditions: c terminus: a fixed tail appended;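 note: lentivirally expressed fusions sorted by FACS into six bins by GFP to DsRed ratio, PSI derived from sequencing read proportions per bin multiplied by bin number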
// FALSE strictly below 2 in protein stability index; TRUE otherwise

Here's what some known entries look like.
INSERT INTO results (variant_descriptor, qualitative_label) VALUES
  ('F20M', 'FALSE'),
  ('L17C', 'TRUE'),
  ('P22Y', 'TRUE'),
  ('T21N', 'TRUE'),
  ('L14V', 'TRUE');

Could you now look at the following variant, please?
protein stability index >= 2 for "F20V" ?
FALSE
